Molecular target: human recombinant GABAAR containing α5β3γ2 subunits (benzodiazepine site) (Homo sapiens, UniProt P18507+P31644)
Construct: expressed in transfected cells; host or cells: mouse L(tk−) cells, dexamethasone-inducible vector pMSGneo
Sequence (P31644 32-462): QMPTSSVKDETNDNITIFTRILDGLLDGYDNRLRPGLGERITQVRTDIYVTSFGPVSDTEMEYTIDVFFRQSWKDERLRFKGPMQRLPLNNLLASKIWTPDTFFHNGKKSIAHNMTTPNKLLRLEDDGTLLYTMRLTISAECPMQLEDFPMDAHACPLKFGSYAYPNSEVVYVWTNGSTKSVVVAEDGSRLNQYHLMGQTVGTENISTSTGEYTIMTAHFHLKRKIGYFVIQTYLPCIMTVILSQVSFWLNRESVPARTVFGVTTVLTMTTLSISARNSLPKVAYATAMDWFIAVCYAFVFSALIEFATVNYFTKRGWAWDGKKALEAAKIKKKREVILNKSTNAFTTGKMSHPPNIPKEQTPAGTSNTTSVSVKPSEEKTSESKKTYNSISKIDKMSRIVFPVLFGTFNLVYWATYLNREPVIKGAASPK
Sequence (P28472 26-473 partner): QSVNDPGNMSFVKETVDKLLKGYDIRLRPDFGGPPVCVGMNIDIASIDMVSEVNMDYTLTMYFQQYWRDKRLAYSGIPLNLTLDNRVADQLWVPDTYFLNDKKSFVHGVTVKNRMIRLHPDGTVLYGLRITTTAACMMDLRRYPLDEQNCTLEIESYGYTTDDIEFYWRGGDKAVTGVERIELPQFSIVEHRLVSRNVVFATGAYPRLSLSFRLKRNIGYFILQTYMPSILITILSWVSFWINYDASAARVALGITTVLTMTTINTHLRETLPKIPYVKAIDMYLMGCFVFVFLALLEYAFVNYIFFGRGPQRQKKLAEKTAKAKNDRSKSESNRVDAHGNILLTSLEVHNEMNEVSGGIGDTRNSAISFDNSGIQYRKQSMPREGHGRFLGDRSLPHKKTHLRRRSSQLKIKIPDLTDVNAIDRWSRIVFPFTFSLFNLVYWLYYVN
Sequence (P18507 40-475): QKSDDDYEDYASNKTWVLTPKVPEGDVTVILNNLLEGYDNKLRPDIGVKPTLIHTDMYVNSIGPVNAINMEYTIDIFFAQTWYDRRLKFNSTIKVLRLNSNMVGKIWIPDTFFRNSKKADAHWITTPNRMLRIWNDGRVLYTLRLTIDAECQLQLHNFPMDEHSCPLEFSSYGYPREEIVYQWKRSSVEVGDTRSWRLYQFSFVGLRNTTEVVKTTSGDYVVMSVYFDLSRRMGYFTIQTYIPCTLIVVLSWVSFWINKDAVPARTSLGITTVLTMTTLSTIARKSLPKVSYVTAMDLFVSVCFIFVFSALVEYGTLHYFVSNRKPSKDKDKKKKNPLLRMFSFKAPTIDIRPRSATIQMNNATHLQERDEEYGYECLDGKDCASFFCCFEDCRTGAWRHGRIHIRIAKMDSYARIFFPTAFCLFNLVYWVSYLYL
Assay: In vitro radioligand binding assay (α5-GABAAR Ki)
Conditions: inhibition of [3H]Ro15-1788 binding, membranes of L(tk−) cells expressing human α5β3γ2; read-out: α5-GABAAR Ki
Text: Mouse L(tk^−) cells stably expressing human α1β3γ2, α2β3γ2, α3β3γ2, α5β3γ2 GABAARs generated by transfection of the individual subunits in the dexamethasone-inducible expression vector pMSGneo in mouse L(tk^−) cells (Hadingham et al., 1993, Mol. Pharmacol. 43:970-975 and 1993, Mol. Pharmacol. 44:1211-1218) were used for binding and functional assays. […] The % inhibition of [^3H] Ro15-1788 binding was plotted as a function of compound concentration and the IC50 calculated. […]
pKi: −log10 of the molar value. Counter-ions that a name gives are not always drawn.
This listing pairs molecules with measured pKi.
Measured attribute: pKi

>>> print(df.to_string())
                                   molecule  experimental_value
0  COc1nc(-c2ccc(CN)cc2)ccc1NC(=O)c1c(-c2ccccc2)noc1C [Example 182, hydrochloride]                8.06
1  COc1nc(-c2ccn3nc(N)nc3c2)ccc1NC(=O)c1c(-c2ccccc2)nnn1C                8.85
2  COc1nc(-c2cnc(NCCN)nc2)ccc1NC(=O)c1c(-c2ccccc2)noc1C.Cl [Example 171, hydrochloride]                8.42
3  COc1nc(-c2ccc3cn[nH]c3c2)ccc1NC(=O)c1c(-c2ccccc2)noc1C                6.94
4  Cc1onc(-c2ccccc2)c1C(=O)Nc1ccc(-c2cnc(N)nc2)nc1OC(C)C                9.40
5  COc1nc(-c2cnc(N)c(OC)n2)ccc1NC(=O)c1c(-c2ccccc2)noc1C                7.49
6  COc1nc(-c2ccsn2)ccc1NC(=O)c1c(-c2ccccc2)noc1C                6.63
7  COc1cc(-c2c(C)noc2C)cnc1NC(=O)c1c(-c2ccccc2)noc1C                7.30
8  COc1nc(-c2ccncc2C)ccc1NC(=O)c1c(-c2ccccc2)noc1C                6.79
9  COc1nc(-n2cncn2)ccc1NC(=O)c1c(-c2ccccc2)noc1C                8.36

Provenance of the data: patent US20240425491A1
